Data origin: paper PMC2721907

target: Plk1 PBD (purified recombinant) (human); test: ITC
Square brackets hold non-standard residues; d marks the D form. Ends that are not written are not given here. pT = C[C@@H](OP(=O)(O)O)[C@H](N)C(=O)O
Catalogue of Kd values
measurementName: Kd (µM)

• Ac-LHS[pT]AI [LHSpTAI, N-terminally acetylated] = 0.247
• Ac-PLHS[pT]A [PLHSpTA, N-terminally acetylated] = 0.262
• Ac-HS[pT]A [HSpTA, N-terminally acetylated] = 19.5
• Ac-LHS[pT] [LHSpT, N-terminally acetylated] = 22.1
